Measured kinact/KI, listed per entry.
experimental.target: Human FAAH (Homo sapiens)
Construct: made in house
Sequence (O00519 1-579): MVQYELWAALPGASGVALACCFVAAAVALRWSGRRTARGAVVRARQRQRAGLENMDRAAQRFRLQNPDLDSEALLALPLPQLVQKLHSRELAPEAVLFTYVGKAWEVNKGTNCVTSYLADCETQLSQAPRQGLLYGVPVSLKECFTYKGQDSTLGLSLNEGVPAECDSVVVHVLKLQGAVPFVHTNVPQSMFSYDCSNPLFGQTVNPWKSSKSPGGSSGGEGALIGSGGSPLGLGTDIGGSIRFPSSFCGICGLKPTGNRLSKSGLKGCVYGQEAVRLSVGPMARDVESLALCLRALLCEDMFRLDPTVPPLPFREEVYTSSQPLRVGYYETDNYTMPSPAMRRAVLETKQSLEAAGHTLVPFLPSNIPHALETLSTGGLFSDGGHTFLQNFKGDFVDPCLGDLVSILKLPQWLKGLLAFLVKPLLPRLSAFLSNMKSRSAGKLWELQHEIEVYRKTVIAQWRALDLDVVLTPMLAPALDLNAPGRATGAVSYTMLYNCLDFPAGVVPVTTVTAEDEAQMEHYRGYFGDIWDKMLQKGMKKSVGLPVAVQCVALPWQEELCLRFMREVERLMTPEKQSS
assay.notes: FAAH assay (glutamate dehydrogenase-coupled, oleamide substrate, absorbance at 340 nm)
Format: biochemical
condition.description: irreversible inhibition, 1-4 nM FAAH, pH 7.4, 30° C., 90 min, read-out: hFAAH kinact/Ki
Give just the number in M⁻¹ s⁻¹; leave the unit off.

>>> numeric_result("CC(C)Oc1ccc(Oc2cccc(C=C3CCN(C(=O)Nc4cccnn4)CC3)c2)nc1 [Example 52]")
4090
>>> numeric_result("O=C(Nc1cccnn1)N1CCC(=Cc2cccc(Oc3ccc(OCC(F)(F)F)cc3)c2)CC1 [Example 100]")
2000
>>> numeric_result("COc1ccc(NC(=O)N2CCC(=Cc3cccc(Oc4ccc(C(F)(F)F)cn4)c3)CC2)nn1 [Example 26]")
11000
>>> numeric_result("Cc1noc(NC(=O)N2CCC(=Cc3cccc(Oc4ccc(Br)cn4)c3)CC2)c1C [Example 35]")
3670
>>> numeric_result("O=C(Nc1cccnc1)N1CCC(=Cc2cccc(Oc3ccc(Br)cn3)c2)CC1 [Example 33]")
26300

Reported kinact/KI, compound O=C(Nc1ccnnc1)N1CCC(=Cc2cccc(Oc3ccc(C(F)(F)F)cn3)c2)CC1 [Example 25] : ____
12100

Please answer likewise for O=C(Nc1cccnn1)N1CCC(=Cc2cccc(Oc3ncc4ccccc4n3)c2)CC1 [Example 105]
2530

Please answer likewise for O=C(Nc1cccnn1)N1CCC(=Cc2cccc(Oc3ccc(C4CC4)cn3)c2)CC1 [Example 39]
18200

Please answer likewise for COc1ccc(-c2cnc(Oc3cccc(C=C4CCN(C(=O)Nc5cccnn5)CC4)c3)nc2)cc1 [Example 104]
105

* * *

experimental.target: Human FAAH (Homo sapiens, UniProt O00519)
Construct: made in house
assay.notes: FAAH assay (glutamate dehydrogenase-coupled, oleamide substrate, absorbance at 340 nm)
Type: biochemical
condition.description: irreversible inhibition, 1-4 nM FAAH, pH 7.4, 30° C., 90 min, read-out: hFAAH kinact/Ki
Measured kinact/KI, listed per entry.

Worked set:
>>> result("O=C(Nc1cccnn1)N1CCC(=Cc2cccc(Oc3ccccc3)n2)CC1")
"636 M⁻¹ s⁻¹"
>>> result("COc1cc(Oc2cccc(C=C3CCN(C(=O)Nc4cccnn4)CC3)c2)ncn1")
"896 M⁻¹ s⁻¹"
>>> result("O=C(Nc1cccnc1)N1CCC(=Cc2cccc(Oc3ccc(C4CC4)cn3)c2)CC1")
"9180 M⁻¹ s⁻¹"
>>> result("Cc1cnc(Oc2cccc(C=C3CCN(C(=O)Nc4cccnn4)CC3)c2)nc1")
"1240 M⁻¹ s⁻¹"

Reported kinact/KI, molecule O=C(Nc1cncc(Cl)n1)N1CCC(=Cc2cccc(Oc3ccc(C(F)(F)F)cn3)c2)CC1 : ____
3900 M⁻¹ s⁻¹

Please answer likewise for O=C(Nc1onc2ccccc12)N1CCC(=Cc2cccc(Oc3ccc(F)cc3)c2)CC1
2730 M⁻¹ s⁻¹

Please answer likewise for Cc1cnc(Oc2cccc(C=C3CCN(C(=O)Nc4cccnn4)CC3)c2)nc1C(C)C
861 M⁻¹ s⁻¹
